measurement-description: Clearance in Beagle dog at 0.8 mg/kg, iv or 1.8 mg/kg, po
Type: ADME, organism-based, Canis lupus familiaris
condition-summary: in vivo
quantity-measured: clearance

>>> df
                                smiles_repr       measured
0  CC(C)CCn1c(=O)c(C2=NS(=O)(=O)c3ccccc3N2)c(O)c2ccccc21  0.5 mL/min/kg

###

tested-on: RNA-directed RNA polymerase (Hepacivirus hominis, UniProt O39930)
Sequence (O39930 whole entry): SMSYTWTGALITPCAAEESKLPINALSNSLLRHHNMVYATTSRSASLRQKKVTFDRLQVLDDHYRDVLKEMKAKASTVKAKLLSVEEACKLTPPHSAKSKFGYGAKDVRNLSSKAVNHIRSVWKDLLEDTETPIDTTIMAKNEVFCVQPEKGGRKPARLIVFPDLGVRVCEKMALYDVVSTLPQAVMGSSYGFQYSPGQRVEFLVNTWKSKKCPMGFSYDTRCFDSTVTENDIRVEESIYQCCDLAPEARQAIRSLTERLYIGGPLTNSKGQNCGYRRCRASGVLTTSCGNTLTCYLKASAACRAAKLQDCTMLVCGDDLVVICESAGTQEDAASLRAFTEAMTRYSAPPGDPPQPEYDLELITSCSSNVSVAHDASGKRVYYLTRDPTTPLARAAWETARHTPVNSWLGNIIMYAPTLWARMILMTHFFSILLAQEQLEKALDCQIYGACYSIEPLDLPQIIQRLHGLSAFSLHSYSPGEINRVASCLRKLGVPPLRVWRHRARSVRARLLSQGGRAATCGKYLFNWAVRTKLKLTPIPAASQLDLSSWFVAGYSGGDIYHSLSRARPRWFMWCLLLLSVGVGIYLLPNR
measurement-description: Inhibitory activity against HCV delta 21 NS5B RNA polymerase by SPA assay
Parameters: species or system Hepatitis C virus subtype 1b
pIC50: −log10 of the molar value.
Given measured pIC50, output T if it is greater than or equal to 7 and F if not.

In [3]: df
Out[3]:
                                    compound  class_assignment
 0  CC(C)CCn1c(=O)c(C2=Nc3ccccc3S(=O)(=O)N2)c(O)c2ccc(Br)cc21                 F
 1  CC(C)CCn1c(=O)c(C2=NS(=O)(=O)c3ccccc3N2)c(O)c2ccc(/C=C/C(N)=O)cc21                 F
 2  Cn1c(=O)c(C2=NS(=O)(=O)c3ccccc3N2)c(O)c2ccccc21                 F
 3  O=c1c(C2=Nc3ccccc3S(=O)(=O)N2)c(O)c2ccccc2n1CCc1cccs1                 F
 4  CC(C)CCn1c(=O)c(C2=NS(=O)(=O)c3ccccc3N2)c(O)c2c(Cl)cccc21                 T
 5  CCCCn1c(=O)c(-c2nc3ccccc3[nH]2)c(O)c2ccccc21                 F
 6  CC(C)CCn1c(=O)c(C2=Nc3ccccc3S(=O)(=O)N2)c(O)c2c(F)cccc21                 F
 7  COCCn1c(=O)c(C2=Nc3ccccc3S(=O)(=O)N2)c(O)c2ccccc21                 F
 8  COc1ccc2c(c1)c(O)c(C1=NS(=O)(=O)c3ccccc3N1)c(=O)n2CCC(C)C                 T
 9  CC(C)(C)CCn1c(=O)c(C2=NS(=O)(=O)c3ccccc3N2)c(O)c2cc(NCCO)ccc21                 T
10  N#Cc1ccccc1Cn1c(=O)c(C2=Nc3ccccc3S(=O)(=O)N2)c(O)c2ccccc21                 F
11  Cc1ccc2c(c1)c(O)c(C1=NS(=O)(=O)c3ccccc3N1)c(=O)n2CCC(C)C                 T
12  Nc1ccc2c(c1)c(O)c(C1=NS(=O)(=O)c3ccccc3N1)c(=O)n2CCC1CC1                 T
13  CC(C)CCn1c(=O)c(C2=NS(=O)(=O)c3ccccc3N2)c(N)c2ccccc21                 F
14  CC(C)CCn1c(=O)c(C2=NS(=O)(=O)c3ccccc3N2)c(O)c2c(O)cccc21                 T
15  CC(C)CCn1c(=O)c(C2=NS(=O)(=O)c3ccccc3N2)c(O)c2cc(OCCCC#N)ccc21                 F
16  CC(C)CCn1c(=O)c(C2=Nc3ccccc3S(=O)(=O)N2)c(O)c2ccc(Cl)cc21                 F
17  N#CCCCCn1c(=O)c(C2=Nc3ccccc3S(=O)(=O)N2)c(O)c2ccccc21                 F
18  CC(C)=CCn1c(=O)c(C2=Nc3ccccc3S(=O)(=O)N2)c(O)c2ccccc21                 F
19  CN(C)CCn1c(=O)c(C2=Nc3ccccc3S(=O)(=O)N2)c(O)c2ccccc21                 F
20  CCCn1c(=O)c(C2=Nc3ccccc3S(=O)(=O)N2)c(O)c2ccccc21                 F
21  CC(C)CCn1c(=O)c(C2=Nc3ccccc3S(=O)(=O)N2)c(O)c2cc(OCc3ccccc3)ccc21                 F
22  O=c1c(C2=NS(=O)(=O)c3ccccc3N2)c(O)c2ccccc2n1CCO                 F
23  CC(Br)CCn1c(=O)c(C2=Nc3ccccc3S(=O)(=O)N2)c(O)c2ccccc21 (stereo not given)                 F

Origin of values: ChEMBL document CHEMBL1148625
